Data origin: the METLIN SMRT retention time set (Domingo-Almenara et al. 2019)

assay: gradient 5% acetonitrile 3 min, to 50% in 2 min, to 85% in 15 min, held 3 min, 100 µL/min; settings: column: Zorbax Extend-C18 2.1 x 50 mm; eluents: water / acetonitrile, 0.1% formic acid
Threshold rule: RP-LC retention time greater than or equal to 800 s is yes (1); below that, no (0).

Quick check: does Cc1ccc(-n2c(=O)c3c(cc(C)n3C)n(CC(=O)Nc3ccccc3F)c2=O)cc1 have RP-LC retention time greater than or equal to 800 s?
yes (1)

// inclusive: RP-LC retention time at least 800 s? input: O=C(Nc1cccc(C(F)(F)F)c1)N1CCCC(Cn2cnc3cccnc32)C1 (stereo not given)
no (0)

# check: RP-LC retention time of COc1ccc(-c2nnc(-c3cc(S(=O)(=O)NC(C)C)ccc3Cl)o2)cc1 is greater than or equal to 800 s
yes (1)

Item O=c1ccc(S(=O)(=O)N2CCCC2)cn1Cc1ccccc1 with RP-LC retention time of 800 s or above?
no (0)

Does the reported RP-LC retention time for COc1ccc2c(c1)C1(CCN(C(=O)C(C)(C)C)C1)C(=O)N2 (stereo not given) fall at or above the 800 s mark?
no (0)

Record CCc1noc([C@@H]2CC(F)(F)CN2C(=O)c2ccoc2)n1 ; criterion: RP-LC retention time no lower than 800 s. Met?
no (0)

Determine whether this compound has RP-LC retention time no lower than 800 s: Cc1ccc(Nc2c(-c3cccc(Br)c3)nc3ccc(C)cn23)cc1
yes (1)

Does the compound Cc1ccc(-n2nc(OC(C)C(=O)NCc3ccco3)ccc2=O)cc1C (stereo not given) have recorded RP-LC retention time that is 800 s or more?
no (0)

Is reported RP-LC retention time greater than or equal to 800 s here: Cn1cc(-c2nc(C(=O)Nc3ccc(F)cc3)cs2)c2cccnc21
yes (1)

Reported RP-LC retention time reaches at least 800 s for Cc1nn(-c2ccccc2)c2c1N(C(=O)CCC(=O)NCCc1c[nH]c3ccccc13)CCS2 ?
yes (1)

###

For each record, write down the corresponding RP-LC retention time.
experiment: gradient 5% acetonitrile 3 min, to 50% in 2 min, to 85% in 15 min, held 3 min, 100 µL/min; details: column: Zorbax Extend-C18 2.1 x 50 mm; eluents: water / acetonitrile, 0.1% formic acid

Item: O=C1c2ccccc2S(=O)(=O)N1CC(O)COc1ccc(Cl)cc1Cl (stereo not given) | RP-LC retention time: 900 s

So, CCOC(=O)c1c(C)oc2ncnc(NC3CCCc4ccccc43)c12 (stereo not given) ? Its RP-LC retention time was 1310 s

Value of measured RP-LC retention time for the entry CC1(C)C(=O)N(CC(=O)NCc2ccccc2Cl)c2ccccc21 : 881 s

Lab book: RP-LC retention time of CCN1C(=O)c2cccnc2Sc2cc(CNC(=O)c3cc(OC)cc(OC)c3)ccc21 noted as 777 s

What the record says about Cc1cc(NC(=O)CN2C(=O)NC(c3ccccc3Cl)C3=C2COC3=O)ccc1Br (stereo not given) : RP-LC retention time is 887 s

So for O=C(NCc1ccco1)C1CC(=O)N(c2ccc3c(c2)CCN3C(=O)C2CCC2)C1 (stereo not given) , the logged RP-LC retention time turned out to be 734 s

// sample COc1ccccc1NC(=O)CN1C(=O)C(c2ccc(Cl)cc2)=NC1(C)C , its RP-LC retention time was 922 s

For this compound ( O=C(c1ccc(-c2cccs2)nc1)N1CCCCCC1 ), measured RP-LC retention time is 878 s

For this compound ( CC(C)CN1CCn2cc(C(=O)NCc3cccc(Br)c3)nc2C1 ), measured RP-LC retention time is 656 s

Record summary for COc1ccccc1-c1ccc(N2CCN(C(=O)c3ccccc3Cl)CC2)nn1 : reported RP-LC retention time = 626 s

Reported RP-LC retention time ( Cc1cc(C)n2nc(SCC(=O)NCCc3ccccc3)nc2n1 ) = 689 s

Documented RP-LC retention time of O=C(CN1CCCCC1c1nc(C2CC2)no1)Nc1cccnc1 (stereo not given) : 592 s

The compound identified as CC(C)NC(=O)N1CCCC(c2nc(C(C)C)no2)CCNC(=O)CC1 (stereo not given) registered its RP-LC retention time at 658 s

So for Cc1ccc(-c2ccc(=O)n(CCCC(=O)N3CCc4ccccc43)n2)cc1 , the logged RP-LC retention time turned out to be 880 s

Record summary for Cc1ccc2c(c1)N(S(C)(=O)=O)CCC(C(=O)NC(C)c1ccccc1)O2 (stereo not given) : reported RP-LC retention time = 900 s

Form field RP-LC retention time, entry CCCOc1nc2ccccc2nc1N1CCCC(C(=O)Nc2cc(C)ccc2C)C1 (stereo not given) : 1340 s

Summary for this compound, O=C(Nc1ncnc2c1CCC2)c1ccc(S(=O)(=O)N2CCCc3ccccc32)cc1 : RP-LC retention time is 817 s

Lookup result for CC(C)CNC(=O)c1cc2c(s1)N(CC1CC1)CCCC2 ; measured RP-LC retention time: 1040 s

Lab note: O=C(CCn1c(N2CCCC2)nc2ccsc2c1=O)NCc1ccccc1F gave RP-LC retention time of 748 s

// recorded RP-LC retention time for COc1ccc(C(=O)Nc2nc(-c3ccc4c(c3)NC(=O)C(C)O4)c(C)s2)cc1OC (stereo not given) : 867 s

Consider CCOC(=O)c1nc(N2CCN(c3cc(Cl)ccc3C)CC2)c2ccccc2n1 . Its measured RP-LC retention time is 1140 s

Entry COc1cc(/C=C2/C(=O)N(c3ccccc3)N=C2C)ccc1OCC(=O)Nc1ccccc1 ; RP-LC retention time = 1080 s

For reference, reported RP-LC retention time for CCN1C=C(C(=O)OCc2cc(F)cc(F)c2)C(C)=NS1(=O)=O stands at 926 s

For reference, reported RP-LC retention time for O=C(c1cc2ccccc2[nH]1)N1CCC(Cn2c(C(F)(F)F)nc3ccccc32)CC1 stands at 881 s

For reference, reported RP-LC retention time for O=C(CCOc1ccc(F)cc1)N1CCN(Cc2ccccc2)CC1 stands at 575 s

###

experiment: gradient 5% acetonitrile 3 min, to 50% in 2 min, to 85% in 15 min, held 3 min, 100 µL/min; conditions: column: Zorbax Extend-C18 2.1 x 50 mm; eluents: water / acetonitrile, 0.1% formic acid
property measured: RP-LC retention time (s)
Please give a number only; it is taken to be in s.

In plain terms, COc1cccc(-n2ccc(=O)c(-c3nc(-c4cccc(F)c4)no3)n2)c1 has a documented RP-LC retention time of 905

Form: molecule = Cc1ccn2cc(C(=O)N3CCN(c4cccc(Cl)c4)CC3)nc2c1 ; RP-LC retention time = 692

The molecule identified as CCc1ccc(C(=O)N2CCN(c3nnc4cccc(C)n34)CC2)cc1 registered its RP-LC retention time at 691

Per the records, this molecule ( CCn1ccc(C(=O)N2CCN(c3nc4cccnc4n(C)c3=O)CC2)n1 ) has RP-LC retention time equal to 721

get_value(item= COCc1cc(=O)n(CC(=O)Nc2ccc(OC)c(OC)c2)c(N2CCOCC2)n1 , readout=RP-LC retention time) returns 702

Quick note, RP-LC retention time for COc1ccc(C(=O)Nc2ccc3c(c2)Sc2ncccc2C(=O)N3C)cn1 landed at 710

###

Answer each item with its documented RP-LC retention time.
experiment: gradient 5% acetonitrile 3 min, to 50% in 2 min, to 85% in 15 min, held 3 min, 100 µL/min; conditions: column: Zorbax Extend-C18 2.1 x 50 mm; eluents: water / acetonitrile, 0.1% formic acid

The compound identified as CCn1cc(C2=CCN(C(=O)Cc3ccc(F)cc3)CC2)c2cccnc21 registered its RP-LC retention time at 876 s

// RP-LC retention time lookup, compound = CNC(=O)c1cc(N2CCOCC2)nc2c(C)cccc12 , result: 704 s

Per the record, CN(C)S(=O)(=O)c1ccc(-c2nnc(C(=O)NCc3ccc(Cl)cc3)o2)cc1 has RP-LC retention time of 909 s

Notebook: COc1ccc(-c2cc3c(=O)n(Cc4ccc(F)cc4)ccn3n2)cc1OC , RP-LC retention time read as 913 s

###

Give measured RP-LC retention time for each item. Keep answers brief.
assay: gradient 5% acetonitrile 3 min, to 50% in 2 min, to 85% in 15 min, held 3 min, 100 µL/min; settings: column: Zorbax Extend-C18 2.1 x 50 mm; eluents: water / acetonitrile, 0.1% formic acid
# number only, unit s dropped from output

Please fill in: RP-LC retention time reported for Cc1ccc(-c2cn3c(n2)N(C(=O)Cn2ccnc2C)CCC3)cc1 = 628

RP-LC retention time measured on Cc1ccc(NC(=O)N2CCC(C(C)C(=O)Nc3cccc(Cl)c3)CC2)cc1 (stereo not given) = 971

Record Cc1cc(NC(=O)CN2CCc3nc(NC(=O)C4CC4)sc3C2)no1 , field RP-LC retention time: 546

The measured RP-LC retention time associated with CCCCC(C=O)NC(=O)[C@H](CC(C)C)NC(=O)OCc1ccccc1 (stereo not given in full) reads 970

Form: compound = O=C(CN1CCC(c2nc(-c3cccs3)no2)CC1)Nc1ccccc1C(F)(F)F ; RP-LC retention time = 753

// Cc1nc(N2CCN(c3ccccn3)CC2)nc2oc(-c3ccccc3)nc12 : RP-LC retention time value = 755

Sure, the documented RP-LC retention time for CCCCn1c(=O)c2ccccc2n(Cc2nc(-c3ccc(OC)c(OC)c3)no2)c1=O is 1060

Record c1ccc(-c2nc(C3CCOCC3)no2)c(OC2CCN(C3CCCC3)C2)c1 (stereo not given) , field RP-LC retention time: 661

Entry under test: Cn1nnc2cc(CNC(=O)c3ccccn3)ccc21 . Its RP-LC retention time was 651

N#Cc1cccc(NC(=O)Cc2cn3cc(F)ccc3n2)c1 has a reported RP-LC retention time of 593

Record summary for Cc1ccc(Nc2c(-c3cccc(Br)c3)nc3ccc(Br)cn23)cc1 : reported RP-LC retention time = 1140

Measured RP-LC retention time of Cc1cc(C)c(NC(=O)Cn2nc(N3CCCC(C)C3)c3ccccc3c2=O)c(C)c1 (stereo not given) : 1180

Memo: CCC(=O)NCc1nc2c(n1C)CN(S(=O)(=O)c1ccc(CC)cc1)CC2 , reported RP-LC retention time: 581

Form: compound = O=C1OCC/C1=C\c1ccc2c(c1)OCO2 ; RP-LC retention time = 830

The compound listed as COc1cccc(C(=O)N2CCC3(CC2)NC(=O)c2cccc(Cl)c2N3)c1 has a reported RP-LC retention time of 749

Please fill in: RP-LC retention time reported for CCOC(=O)c1ccc(NC(=O)c2cccc([N+](=O)[O-])c2)cc1 = 890

Value of measured RP-LC retention time for the entry Cc1noc(-c2ccnc(-n3cnc(C(=O)NC4CCCCC4)c3)c2)n1 : 776

Recorded RP-LC retention time (compound COc1ccc(CCc2nc3nccc(-c4ccc5c(c4)OCCCO5)n3n2)cc1OC ): 874

In plain terms, C[C@H]1CN(C(=O)Cc2ccccc2F)C[C@@H]1c1nc(-c2ccccc2)no1 has a documented RP-LC retention time of 1020

// recorded RP-LC retention time for c1ccc(CN2CCC3(CCc4ccccc43)CC2)cc1 : 784

So, COc1cc(CNC(=O)c2nc(CCS(=O)(=O)c3ccc(F)cc3)no2)cc(OC)c1OC ? Its RP-LC retention time was 788

The reported RP-LC retention time of the compound CCC(=O)N1CCc2cc(-c3ccc(C(=O)NCc4ccco4)cc3)ccc21 was 849

So for Cn1c(=O)c(=O)n(C)c2cc(N3CCCCC3)c(NC(=O)C3CCCCC3)cc21 , the logged RP-LC retention time turned out to be 940

RP-LC retention time reported for this compound Cc1sc(-c2nnc(C3CC3)o2)cc1NC(=O)Cc1c[nH]c2ccccc12 : 877

get_value(item= COc1ccc(C2(C(=O)NCc3ccc4c(c3)ncn4C(C)C)CC2)cc1 , readout=RP-LC retention time) returns 678

Looking up COc1ccc(-n2nnc(-c3nsc(Nc4ccc(Cl)cc4)n3)c2C)cc1 , I found its RP-LC retention time recorded as 1060

Lab note: measured RP-LC retention time of Cc1ccc(C)c(Cn2nc3c(S(=O)(=O)N4CCCC4)cccn3c2=O)c1 was 914

According to the records, this compound O=[N+]([O-])c1cccc(/C=C/c2ccccn2)c1 displays RP-LC retention time of 747

// recorded RP-LC retention time for Cn1c(=O)c2c(nc(Oc3ccccc3)n2C)n(C)c1=O : 807

Record CCCCn1cc(S(=O)(=O)Nc2ccc(F)c(F)c2)c2cccnc21 . Reported RP-LC retention time: 966
